test: folding stability dG unfold from trypsin proteolysis; higher = more stable
Binary call on folding stability dG unfold: T from 1 kcal/mol upward, F beneath that.

## Task Decide: is the reported value of folding stability dG unfold for SAGGSAGGSAGWRTHSHWVPPDNIPELAERIQDWGVKVEIERDPKDGWYRVTITIPDDFISAGGSAGGSAGG [r11_1043_TrROS] equal to or greater than 1 kcal/mol?
## Result F

## Task Decide: is the reported value of folding stability dG unfold for SAGGSMLIKIKLPKNNPLRDKIVEKLKKSPYVKDVKVKRLKELPNYEIFLIEVDGDPKVADEIKKLASAGGS [r16_394_TrMRF] equal to or greater than 1 kcal/mol?
## Result T

## Task Decide: is the reported value of folding stability dG unfold for SFHVERDPEDNTIYIHFPPGMDPLELAKSLLKELREQQDDGPIKIHVHYGDWVFEIDIKKGKIEVRPPGESA [r9_224_TrROS] equal to or greater than 1 kcal/mol?
## Result T

## Task Decide: is the reported value of folding stability dG unfold for SAGGSAGGSGMKRTATVVERDPATGRVLLEITDGSKTTTRVLEGPPSGRGAASSPEIDSLSLLSAGGSAGGS [r12_421_JUSTAS] equal to or greater than 1 kcal/mol?
## Result F

## Task Decide: is the reported value of folding stability dG unfold for SAGGMKIYYISKGKKYYVKVILPNNEIIEIETESLEEAIKKAKEELIKKYPNIPPENFKIDYIIPLPESAGG [r13_887_TrMRF] equal to or greater than 1 kcal/mol?
## Result T

## Task Decide: is the reported value of folding stability dG unfold for SAGGSAGGSAGGLDLSVPGLTSVTPVLLEDPRGYVTTVYTTTYPDGTVLTHTTVLPASLLSAGGSAGGSAGG [r7_214_JUSTAS] equal to or greater than 1 kcal/mol?
## Result T

## Task Decide: is the reported value of folding stability dG unfold for SAGGPYEFWFTITIDYPDLTPKQAVEEARKILRKLGFEITDIPVQVDPDPGWITVMARITIRPPEDASAGGS [r16_287_TrROS] equal to or greater than 1 kcal/mol?
## Result T

The origin of these recorded values is the supplement of paper PMC12764529.
